TEST_PROTOCOL: PBMC assay, host cell cytotoxicity
Format: cell-based, human
ASSAY_SETUP: human; PBMCs; read-out: TC50
READOUT_TYPE: CC50 at 7 days
In your response, the unit should come after the numeric value.

Exam item: Write down CC50 at 7 days measured for item `O=C(O)c1ccc2c(c1)nc(Nc1cccc(Cl)c1)c1ccncc12`
Marked response: 7.61 µM

###

Target protein (sequence): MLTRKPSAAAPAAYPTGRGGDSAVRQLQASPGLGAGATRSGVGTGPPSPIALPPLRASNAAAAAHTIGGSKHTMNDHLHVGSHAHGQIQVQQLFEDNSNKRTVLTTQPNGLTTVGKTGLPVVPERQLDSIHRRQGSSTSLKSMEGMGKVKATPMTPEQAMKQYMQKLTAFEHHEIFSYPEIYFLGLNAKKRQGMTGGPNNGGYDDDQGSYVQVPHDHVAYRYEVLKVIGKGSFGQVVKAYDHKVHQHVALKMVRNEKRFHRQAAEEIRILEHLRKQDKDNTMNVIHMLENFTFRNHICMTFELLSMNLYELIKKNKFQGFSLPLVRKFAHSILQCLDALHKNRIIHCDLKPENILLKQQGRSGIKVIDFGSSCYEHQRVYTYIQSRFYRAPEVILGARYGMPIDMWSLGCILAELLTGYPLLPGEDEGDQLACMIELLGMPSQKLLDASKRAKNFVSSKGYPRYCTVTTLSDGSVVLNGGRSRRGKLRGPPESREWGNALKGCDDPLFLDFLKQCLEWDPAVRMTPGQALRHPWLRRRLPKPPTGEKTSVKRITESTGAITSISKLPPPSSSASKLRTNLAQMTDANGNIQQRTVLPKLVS
READOUT_TYPE: IC50 (nM)
Provide only the numeric value, understood in nM.

Exam item: Find the measured IC50 of `O=C(O)c1ccc2c(c1)nc(Nc1cccc(Cl)c1)c1ccncc12` and report it.
Marked response: 91
